Origin of measurements: patent US20240208998A1

Listed next: entries and their corresponding Kd.
TESTED_SYSTEM: human TET2 construct (Homo sapiens, UniProt Q6N021, A1837G/A1840G/D1704G/D1842G/DEL1471-1702/DEL1708-1833/E1841G/F1706G/N1843S/Q1834G/V1836G)
PROTOCOL_DETAILS: Determination of TET2 binding by Surface Plasmon Resonance
CONDITION_NOTES: SPR, Biacore T200, 25° C., steady state fit to single site interaction model

COMPOUND | UNIT | Kd
Cc1[nH]c2ccccc2c1-c1csc(NC(=O)Cc2cn3ccsc3n2)n1 [Example 1] | µM | 16
Cc1[nH]c2ccccc2c1-c1csc(NC(=O)Cc2cn3cc(F)ccc3n2)n1 [Example 8] | µM | 10
Cc1[nH]c2ccccc2c1-c1csc(NC(=O)Cc2c[nH]c3ccccc23)n1 [Example 13] | µM | 14
O=C(Cc1cn2ccsc2n1)Nc1nc(-c2c[nH]c3ccc([N+](=O)[O-])cc23)cs1 [Example 23] | µM | 15
Cc1cn2cc(CC(=O)Nc3nc(-c4c(C)[nH]c5ccccc45)cs3)nc2s1 [Example 9] | µM | 9
